- Tested on: Saccharomyces cerevisiae;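 note: PSI is a weighted mean of sequencing reads over stability bins, variants kept only with over 10 reads, mCherry proximal and sfGFP distal, peptide attached via GGGS linker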
- Test: protein stability index of tFT-peptide fusion (C-terminal peptide) (PSI (0-1 scale)); higher = more stable (slower turnover)
- Assay conditions: genetic background: wild type; temperature: 30 C
For each record, write down the corresponding protein stability index.
One number for each entry.

Field: example entries. Status: answers known.
Prompt: Give the measured protein stability index of `TNALVGEWVGLG` .
Response: 0.795

Prompt: Could you do the same for `YPRPIPSISRTS` , please?
Response: 0.731

List reported protein stability index for each of these sequences:
1. TQYTDNQTPITK
2. SEVFAVGITGVI
3. YCMRPLCLEMFR
4. DGGAGGLGLLGG
5. LQCAVPPRDLTS

Response:
1: 0.667; 2: 0.679; 3: 0.682; 4: 0.651; 5: 0.645

List reported protein stability index for each of these sequences:
1. SYMLEGVEGVGE
2. AVISDVSLKPNF
3. LVDHLEMSTTSL

Response:
0.736
0.673
0.724

List reported protein stability index for each of these sequences:
1. PRSPPCPLPPPL
2. SCKARPLVAASD
3. GGLSELGSGIKC

Response:
1: 0.65; 2: 0.66; 3: 0.673

List reported protein stability index for each of these sequences:
1. TEYCSRHDTATK
2. EQDDGARMIRRV
3. GRSLGTPRYHPG
4. SPLAPLPPPPLT

Response:
[0.728, 0.683, 0.713, 0.884]
